These entries and their values trace back to PubChem BioAssay (Tox21).

Assay Method Text: A CellTox Green Cytotoxicity Assay to monitor cytotoxicity in HEK293 cells - 40 hour (AID 1224871); further: nearly all actives have a fitted effect of over 45% in size
Details: CellTox Green fluorescence; series mostly up to 76.8 µM
Records with an inconclusive call do not appear. The source made the active and inactive calls. The call rests on the fitted dose curve; in most records, active means well fitted activation curve with a large enough effect in the repeat runs; inconclusive means weak or mixed curves; inactive means flat fitted curve, though single readings scatter.
Bench note: report the call from active, inactive

**Q:** # outcome recorded in this test, key = "CC1=C(/C=C/C(C)=C/C=C/C(C)=C/C=O)C(C)(C)CCC1"
**A:** active

**Q:** # outcome recorded in this test, key = "C[C@H]1[C@H]2CC[C@H]3[C@@H]4CC=C5C[C@@H](N(C)C)CC[C@]5(C)[C@H]4CC[C@]23CN1C"
**A:** inactive

**Q:** # outcome recorded in this test, key = "CC[C@@]1(O)C(=O)OCc2c1cc1n(c2=O)Cc2c-1nc1ccccc1c2/C=N/OC(C)(C)C"
**A:** inactive

**Q:** # outcome recorded in this test, key = "Clc1ccc2nsnc2c1NC1=NCCN1"
**A:** inactive

**Q:** # outcome recorded in this test, key = "CN(C)c1ccc(SC#N)cc1"
**A:** inactive
